B1: minF1; a variant is named by its letters at N, in order (parent)
chain: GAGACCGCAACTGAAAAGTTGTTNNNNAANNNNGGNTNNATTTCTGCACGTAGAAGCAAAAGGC

# Variants of: B1
# ASSAY: fraction ligated after 30 min (ligated reads / total reads); higher = more ligase activity
# ASSAY CONTEXT: with F1*subA RNA substrate (template-directed ligation), 42 °C
Outcome label depends on fraction ligated relative to 0.003: at/above gives Satisfied, below gives Not satisfied.

Use the examples below as a reference point.
TAGATGGAGTT T23A G34T T37G: Not satisfied
CAGATGGAGTT T23A G34T T37G: Not satisfied
ATAGATGGGTA G34A: Satisfied

Asked: fraction ligated >= 0.003 for TCAATGTGTGA T23A ?
Given back: Not satisfied

Asked: fraction ligated >= 0.003 for TAGATGAGTGA ?
Given back: Not satisfied
